Read-out: Transforming growth factor beta 1 (TGFb1), TGFB1 (gene 7040)
Test: BSK_KF3CT_TGFb1: BioMAP Diversity Plus: KF3CT Assay for Transforming growth factor beta 1 (TGFb1) Biomarker Activity (AID 2283072)
Settings: primary human keratinocytes with fibroblasts; actives raise or lower the signal
Experimental: BSK_KF3CT is a cell-based, multiplexed-readout assay that uses keratinocytes and foreskin fibroblasts, a human skin primary cell co-culture, with measurements taken at 24 hours after chemical dosing in a 96-well plate.BSK_KF3CT_TGFb1 is an assay component measured in the BSK_KF3CT assay. It measures TGF-b1 antibody related to regulation of gene expression using ELISA technology.Data from the assay component BSK_KF3CT_TGFb1 was analyzed into 1 assay endpoint. […]
Activity calls are given as the source filed them. Rule for the calls: active = hit-call score of the fitted dose curve at least 0.9, where 1 is the maximum; inactive = score below 0.9.
Please state which outcome applies, choosing from 1 for active, 0 for inactive

Q. Per the assay record, what outcome was assigned to `CC#C[C@]1(O)CC[C@H]2[C@@H]3CCC4=CC(=O)CCC4=C3[C@@H](c3ccc(N(C)C)cc3)C[C@@]21C` ?
A. 0

Q. Assay outcome for `CCCOC(=O)c1ccc(O)cc1` : what was it?
A. 0

Q. Answer briefly: the call reported for `CC(C)(C)CC(C)(C)c1ccc(O)c(-n2nc3ccccc3n2)c1` in this assay.
A. 0

Q. Dear all, I need the recorded test outcome for `Cc1cc(CCN2CCN(c3nsc4ccccc34)CC2)cc2c1NC(=O)CC2(C)C` , thank you.
A. 1

Q. Which outcome was assigned to `Cc1oc(-c2ccccc2)nc1CCOc1ccc(C[C@H](Nc2ccccc2C(=O)c2ccccc2)C(=O)O)cc1` in this test?
A. 1

====

Read-out: Cytochrome P450 3A4 (Homo sapiens)
Experiment: LTEA_HepaRG_CYP3A4: Life Technologies and Expression Analysis (LTEA) Assay for CYP3A4 using HepaRG (AID 2283487)
Details: mRNA level, 48 h; actives raise or lower the signal
The source made the active and inactive calls. The calls were made as follows: active = hit-call score of the fitted dose curve at least 0.9, where 1 is the maximum; inactive = score below 0.9.
Respond only with the outcome that fits, drawn from 1 = active, 0 = inactive

Worked examples, 3 molecules total:
>  <molecule>
OC1CCC(C2CCCCC2)CC1 (stereo not drawn)

>  <class.name>
0

$$$$
>  <molecule>
C[C@@H]1C[C@H]2[C@@H]3CCC4=CC(=O)C=C[C@]4(C)[C@@]3(F)[C@@H](O)C[C@]2(C)[C@@]1(O)C(=O)COP(=O)(O)O

>  <class.name>
1

$$$$
>  <molecule>
CCCCOCCO

>  <class.name>
0

$$$$

Q. What did the test return for `Oc1cc2ccccc2c2ccccc12` ?
A. 0

Q. Tell me the recorded outcome of this test for `CC(C)CCCCCCOC(=O)CCCCC(=O)OCCCCCCC(C)C` .
A. 0

Q. What did this assay record as the result for `OC1CCCCC1` ?
A. 0

Q. Hi, do you know how `Cc1cc(CCN2CCN(c3nsc4ccccc34)CC2)cc2c1NC(=O)CC2(C)C` came out in this test?
A. 1

Q. For `CCCCCCCCC(=O)O` , which call appears in the assay record?
A. 0

Q. Query: recorded result category for CC(O)CO (stereo not drawn) in this test
A. 0

Q. Which outcome was entered for the molecule N#C[C@@H]1CC(F)(F)CN1C(=O)CNC1CC2CCC(C1)N2c1ncccn1 (stereo partly drawn) in this test?
A. 1

Q. Check the results log: what was the call for `CC(C)(C)c1cccc(C(C)(C)C)c1O` ?
A. 0

Q. Which outcome did this test record for the molecule `c1ccc2c(c1)ccc1ccccc12` ?
A. 1

Q. Dear colleague, could you share the recorded outcome for COCC(C)OCC(C)O (stereo not drawn) when you have a moment?
A. 0

The reported numbers originate from PubChem BioAssay (EPA / NIEHS).
